# drug sensitivity score annotations
# System: HCC1599
# PROTOCOL NOTES: drug sensitivity score (DSS), CellTiter-Glo (DSS (AUC-based score)); higher = stronger drug effect (viability inhibition or cytotoxicity); extreme values may be limits of the assay
# EXPERIMENTAL SETUP: incubation time: 72 h

COMPOUND: O=C1CN2Cc3c(ccc(Cl)c3Cl)N=C2N1 [Anagrelide]
drug sensitivity score: 0

COMPOUND: COc1cc2c(cc1O)CC[C@@H]1[C@@H]2CC[C@]2(C)[C@@H](O)CC[C@@H]12
drug sensitivity score: 2.6

COMPOUND: COc1cc(F)c(F)c(Nc2ccc(I)cc2F)c1NS(=O)(=O)C1(C[C@H](O)CO)CC1
drug sensitivity score: 0

COMPOUND: Cn1cnc2c(F)c(Nc3ccc(Br)cc3Cl)c(C(=O)NOCCO)cc21
drug sensitivity score: 0.803

Next:
So what drug sensitivity score did "CC(=O)c1c(C)c2cnc(Nc3ccc(N4CCNCC4)cn3)nc2n(C2CCCC2)c1=O" get with HCC1599? 0

Attribution: the supplement of paper PMC4862054
